System: NKM-1 (Acute Myeloid Leukemia);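 note: after 72 h of two-drug dosing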
protocol summary: Bliss excess, mean over the matrix (fraction); higher = more synergy
property name: Bliss excess
Please state the value as a number alone, without comment.

>>> measured_result("Cc1c2c(nn1C)CSCc1cc(n(C)n1)CSc1cc(c3ccccc3c1)OCCCc1c(C(=O)O)n(C)c3c-2c(Cl)ccc13 [AZD5991] + CS(=O)(=O)CCNCc1ccc(-c2ccc3ncnc(Nc4ccc(OCc5cccc(F)c5)c(Cl)c4)c3c2)o1 [Lapatinib] (first compound max 1 µM, 7x7, partner max 10 µM)")
-0.0148

Entry O=C(c1cc(Cc2n[nH]c(=O)c3ccccc23)ccc1F)N1CCN(C(=O)C2CC2)CC1 [Olaparib] + Cc1c2c(nn1C)CSCc1cc(n(C)n1)CSc1cc(c3ccccc3c1)OCCCc1c(C(=O)O)n(C)c3c-2c(Cl)ccc13 [AZD5991] (first compound max 10 µM, 7x7, partner max 1 µM) ; Bliss excess = 0.0786
